Data provenance: the array DNA melting data of Ke et al. (doi:10.1101/2024.01.08.574731)

Tm values by entry
# testDescription: melting temperature; fluorescence melt of hairpins on a sequencing array, two-state fit, raised by 9.35 °C to match UV melts
# conditionNotes: sodium 0.088 M
Provide the reading as a plain figure in °C.

sequenceString: GGGTTGGGAAACTAGCCC (((.(.(....).).)))
Tm / °C: 42

sequenceString: GTGCCTGGAAACAGGCGC (.(((((....))))).)
Tm / °C: 65

sequenceString: GCTACCGCGAAAGCGAGC (((..(((....))))))
Tm / °C: 35.9

sequenceString: GGGGTGCCGAAAGGCCCC (((..(((....))))))
Tm / °C: 65

sequenceString: GCCAGGCGAAAGCTGGGC (((..((....))..)))
Tm / °C: 62.9

sequenceString: GATCTGATCCCAGATC ((((((....))))))
Tm / °C: 47

Incoming: Quick one: Tm of GCTACGTCGAAAGACAGC (((..(((....)))))) ?
Outgoing: 36.4
